- assayMethodText: Quantum yield measurements versus Acridine Yellow in EtOH
- Assay type: physicochemical
- testParameters: BDC library, Table 2; excitation 460 nm
- Description: ^1H-NMR, ^19F-NMR and ^13C-NMR spectra were recorded on Bruker ACF300 (300 MHz), DPX300 (300 MHz) and AMX500 (500 MHz) spectrometers. High resolution mass spectra (ESI) were obtained on a Finnigan/MAT 95XL-T spectrometer. Spectroscopic and quantum yield data were measured on a SpectraMax M2 spectrophotometer (Molecular Devices). Data analysis was performed using GraphPrism 5.0. […]
Measured φ (quantum yield) values are reported for all entries that follow.
The reply must contain the numeric value and, after it, the unit.

// solved cases for φ (quantum yield) follow
compound	φ (quantum yield)
CCc1ccc(-c2cn(-c3ccc4n3[B-](F)(F)[N+]3=C(N5CCCCC5)C=CC3=C4c3ccc(N)cc3)nn2)cc1 [BDC-46]	0.10%
Nc1ccc(C2=C3C=CC(N4CCCCC4)=[N+]3[B-](F)(F)n3c2ccc3-n2cc(CC3CCCC3)nn2)cc1 [BDC-7]	0.23%
Nc1ccc(C2=C3C=CC(N4CCCCC4)=[N+]3[B-](F)(F)n3c2ccc3-n2cc(C3CCCC3)nn2)cc1 [BDC-5]	0.16%
COc1cccc(-c2cn(-c3ccc4n3[B-](F)(F)[N+]3=C(N5CCCCC5)C=CC3=C4c3ccc(N)cc3)nn2)c1 [BDC-27]	0.17%
CN(C)Cc1cn(-c2ccc3n2[B-](F)(F)[N+]2=C(N4CCCCC4)C=CC2=C3c2ccc(N)cc2)nn1 [BDC-2]	0.13%

Query: Give its φ (quantum yield) value. Item: CCCCCCCCCCc1cn(-c2ccc3n2[B-](F)(F)[N+]2=C(N4CCCCC4)C=CC2=C3c2ccc(N)cc2)nn1 [BDC-49]
Reply: 0.12%

Query: How about CCCCCCc1cn(-c2ccc3n2[B-](F)(F)[N+]2=C(N4CCCCC4)C=CC2=C3c2ccc(N)cc2)nn1 [BDC-47] ?
Reply: 0.16%

Query: Okay, and COc1ccc2cc(-c3cn(-c4ccc5n4[B-](F)(F)[N+]4=C(N6CCCCC6)C=CC4=C5c4ccc(N)cc4)nn3)ccc2c1 [BDC-22] ?
Reply: 0.28%

Query: Quick one: Nc1ccc(C2=C3C=CC(N4CCCCC4)=[N+]3[B-](F)(F)n3c2ccc3-n2cc(C3(O)CCCC3)nn2)cc1 [BDC-67]
Reply: 0.09%

Query: Queued: Cc1cccc(-c2cn(-c3ccc4n3[B-](F)(F)[N+]3=C(N5CCCCC5)C=CC3=C4c3ccc(N)cc3)nn2)c1 [BDC-45]
Reply: 0.42%

Query: Also, Nc1ccc(C2=C3C=CC(N4CCCCC4)=[N+]3[B-](F)(F)n3c2ccc3-n2cc(C3=CCCCC3)nn2)cc1 [BDC-37] please.
Reply: 0.12%

Query: Record: CCCCc1ccc(-c2cn(-c3ccc4n3[B-](F)(F)[N+]3=C(N5CCCCC5)C=CC3=C4c3ccc(N)cc3)nn2)cc1 [BDC-12]
Reply: 0.09%

Query: Same lookup for CC(C)(C)c1cn(-c2ccc3n2[B-](F)(F)[N+]2=C(N4CCCCC4)C=CC2=C3c2ccc(N)cc2)nn1 [BDC-1] , please.
Reply: 0.18%

Query: Please give the result for Nc1ccc(C2=C3C=CC(N4CCCCC4)=[N+]3[B-](F)(F)n3c2ccc3-n2cc(COc3ccccc3)nn2)cc1 [BDC-17] too.
Reply: 0.11%

Query: Follow-up entry: CN(C)c1ccc(-c2cn(-c3ccc4n3[B-](F)(F)[N+]3=C(N5CCCCC5)C=CC3=C4c3ccc(N)cc3)nn2)cc1 [BDC-13]
Reply: 0.03%

Data provenance is patent US9513294B2.
